Test: chemical genetic growth profiling, strain panel (AID 1159580);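 also: tested at 20 µM; growth read once vehicle control cultures reached saturation at 30 °C; 1 = growth at the plate median or of vehicle wells; lower values mean less growth of the strain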
Details: S. cerevisiae deletion strains, growth OD, locus YBR231C, strain swc5, stronger effect = lower value
Among all 5,500 compounds or so, about 2,000 (36%) were called active. Another 18% or so got no clear call; they are omitted. This is one part of the list.
Here, each record is paired with measured normalized growth data.
measured-property: normalized growth

1. O=c1cc(-c2ccc(O)cc2)oc2cc(O[C@@H]3O[C@H](CO)[C@@H](O)[C@H](O)[C@H]3O[C@@H]3OC[C@](O)(CO)[C@H]3O)cc(O)c12 | 1.01
2. COc1cc2ccc(=O)oc2c(OC)c1OC | 1.02
3. COc1cc2ccc(=O)oc2c2ccoc12 | 0.733
4. COc1c2occc2cc2ccc(=O)oc12 | 1.03
5. CCCC(=O)Nc1ncnc2c1ncn2C1O[C@@H]2COP(=O)(O)O[C@H]2[C@H]1OC(=O)CCC (stereo not given in full) | 0.995
6. CCOc1ccc(Cc2nccc3cc(OCC)c(OCC)cc23)cc1OCC | 0.998
7. COc1ccc(Cc2nccc3cc(OC)c(OC)cc23)cc1OC | 0.998
8. O=C1OC(=O)C2C3CCC(O3)C12 (stereo not given) | 1
9. CC(=O)OCC(=O)[C@@]1(O)CCC2C3CCC4=CC(=O)CC[C@]4(C)[C@@]3(F)[C@@H](O)C[C@@]21C (stereo not given in full) | 0.993
10. O=c1ccc2cc(O[C@@H]3O[C@H](CO)[C@@H](O)[C@H](O)[C@H]3O)c(O)cc2o1 | 0.982
